- Tested on: Escherichia coli
- RUN_DESCRIPTION: Synergistic antibacterial activity against wild type Escherichia coli BW25113 assessed as levofloxacin MIC at 16 microg/ml incubated for 18 hrs by broth dilution assay
- Type: functional
- TEST_CONDITIONS: dose 16 µg/ml
Peptide text beside a SMILES is read from it.
Exercise: for every item that follows, state its recorded MIC.
Numbers only, in µg/mL.

COc1ccc(OCCCOc2cccc3c4c(c(C(=O)N5CCOCC5)cc23)CCC(C)(C)O4)cc1
0.032
N=C(N)NCCC[C@H](NC(=O)[C@@H](N)Cc1ccccc1)C(=O)Nc1ccc2ccccc2c1 [PABETAN] (HELM PEPTIDE1{F.R.[c1ccc2cc(N[*:1])ccc2c1]}$$$$V2.0)
0.008
CC1(C)CCc2c(C(=O)N3CCOCC3)cc3c(OCCOc4ccc([N+](=O)[O-])cc4)cccc3c2O1
0.032

For the next question, use this molecule.
Input: Please look at this molecule and report its MIC: CC1(C)CCc2c(C(=O)N3CCOCC3)cc3c(OCCN4CCN(c5ccccc5)CC4)cccc3c2O1
Output: 0.016
